Where do these numbers come from? They come from the RNAGym collection of RNA variant scans (doi:10.7554/elife.80360).

B1: Hairpin Ribozyme (parent)
chain: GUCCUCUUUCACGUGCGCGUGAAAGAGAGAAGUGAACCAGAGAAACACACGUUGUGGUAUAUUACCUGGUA

# Variants of: B1
# experiment-summary: self-cleavage, relative activity (ratio to wild type); higher = more cleavage; co-transcriptional
The reader will find reported self-cleavage values listed item by item below.

[
  {
    "ordered-residues": "GUCCUCUUUCACGUGCGCGUGAAAGAGAGAAUUGAACCAGAGAAGCACACGUUGUGGUAUAUUACCUGGUA [G32U A45G]",
    "self-cleavage": 0.0481
  },
  {
    "ordered-residues": "GUCCUCUUUCACGUGCGCGUGAAAGAGAGAAGUGUACCAGAGAAACACACGUUUUGGUAUAUUACCUGGUA [A35U G54U]",
    "self-cleavage": 0.455
  },
  {
    "ordered-residues": "GUCCUCUUUCACUUGCGCGUGAAAGAGAGAAGUGAACCAGAGAAACACACGUUGUGGUAUAUUACGUGGUA [G13U C66G]",
    "self-cleavage": 0.11
  },
  {
    "ordered-residues": "GUCUUCUUUCACGUCCGCGUGAAAGAGAGAAGUGAACCAGAGAAACACACGUUGUGGUAUAUUACCUGGUA [C4U G15C]",
    "self-cleavage": 0.232
  },
  {
    "ordered-residues": "GUCCUCUUUCACCUUCGCGUGAAAGAGAGAAGUGAACCAGAGAAACACACGUUGUGGUAUAUUACCUGGUA [G13C G15U]",
    "self-cleavage": 0.695
  },
  {
    "ordered-residues": "GUCCUCUUUGACUUGCGCGUGAAAGAGAGAAGUGAACCAGAGAAACACACGUUGUGGUAUAUUACCUGGUA [C10G G13U]",
    "self-cleavage": 0.528
  },
  {
    "ordered-residues": "GUCCUCUUUCACGUGCGCGUGAAUGAGAGAAGUGAACCAGAGAAACACACGUUGUGGUAUAUUACCGGGUA [A24U U67G]",
    "self-cleavage": 0.231
  },
  {
    "ordered-residues": "GUCCUCUUUCUCGUGCGCGUGAAAGAGAGAAGUGCACCAGAGAAACACACGUUGUGGUAUAUUACCUGGUA [A11U A35C]",
    "self-cleavage": 0.86
  },
  {
    "ordered-residues": "GUCCUCUUUCCCGUGCGCGUGAAAGAGAGAAGUGAACCAGAGAAACACACGUUGUGGCAUAUUACCUGGUA [A11C U58C]",
    "self-cleavage": 1.16
  },
  {
    "ordered-residues": "GUCCUCUUUCACGUGCGCGUGAAAGAUAGAAGUGAACCAGAUAAACACACGUUGUGGUAUAUUACCUGGUA [G27U G42U]",
    "self-cleavage": 0.188
  },
  {
    "ordered-residues": "GUCCUCUUUCACGUGCGCGUGAAAGAGAGAAGAGAAUCAGAGAAACACACGUUGUGGUAUAUUACCUGGUA [U33A C37U]",
    "self-cleavage": 0.109
  }
]
